The origin of these recorded values is ChEMBL document CHEMBL5104098.

- MEASUREMENT_NOTES: Inhibition of synthetic AcPHF6 peptide aggregation in pH 7.4 phosphate buffer assessed as reduction in fluorescence intensity at 10 uM and measured every minute over 2 hrs by ThT fluorescence assay relative to control
inhibition below 90% gives NOT MET; inhibition at or above it gives MET.

// known answers, use as guide
> print(dat)
                           molecular.string      cat
1  O=C1/C(=C/c2ccc(O)c(O)c2)Cc2cc(O)cc(O)c21  NOT MET
2  O=C1/C(=C/c2cc(O)c(O)c(O)c2)Oc2cc(O)cc(O)c21      MET
3       COc1cccc(/C=C2\Oc3c(OC)cccc3C2=O)c1  NOT MET
4   O=C1/C(=C/c2ccc(O)cc2O)Cc2cc(O)cc(O)c21  NOT MET
5    O=C1/C(=C/c2cc(O)c(O)c(O)c2)Cc2ccccc21  NOT MET
6  O=C1/C(=C/c2cc(O)c(O)c(O)c2)Cc2cc(O)cc(O)c21  NOT MET
7   O=C1/C(=C/c2ccc(O)cc2O)Oc2cc(O)cc(O)c21      MET
8    O=C1/C(=C/c2cc(O)c(O)c(O)c2)Oc2ccccc21  NOT MET
9  O=C1/C(=C/c2ccc(O)c(O)c2)Oc2cc(O)cc(O)c21      MET

Please turn your attention to the following entry.
Problem: Could you please find out whether O=C1/C(=C/c2cc(O)c(O)c(O)c2)Cc2c(O)cccc21 has inhibition that meets 90% or exceeds it?
Solution: NOT MET

---

- MEASUREMENT_NOTES: Displacement of ThT from AcPHF6 in pH 7.4 phosphate buffer assessed as reduction in fluorescence intensity relative to control
- MEASUREMENT_CONTEXT: dose 10.0 µM
PROPERTY_LABEL: inhibition (%)
Number only, in %; omit the unit.

Answered cases to consult:
> print(dat)
                           molecular.string  property.label  observed
1    O=C1/C(=C/c2cc(O)c(O)c(O)c2)Oc2ccccc21      inhibition        70
2  O=C1/C(=C/c2cc(O)c(O)c(O)c2)Oc2c(O)cccc21      inhibition        88

Problem: I would be grateful if you could share the reported inhibition for O=C1/C(=C/c2ccc(O)c(O)c2)Oc2cc(O)cc(O)c21 .
Solution: 85

Problem: I would be grateful if you could share the reported inhibition for O=C1/C(=C/c2cc(O)c(O)c(O)c2)Cc2cc(O)cc(O)c21 .
Solution: 90

---

- MEASUREMENT_NOTES: Displacement of ThT from AcPHF6 in pH 7.4 phosphate buffer assessed as reduction in fluorescence intensity relative to control
- MEASUREMENT_CONTEXT: dose 10.0 µM
The following compounds are shown together with reported inhibition values.
Number only, in %; omit the unit.

Answered cases to consult:
> print(dat)
                           molecular.string  observed
1       COc1cccc(/C=C2\Oc3c(OC)cccc3C2=O)c1        45
2   O=C1/C(=C/c2ccc(O)cc2O)Cc2cc(O)cc(O)c21        76
3    O=C1/C(=C/c2cc(O)c(O)c(O)c2)Cc2ccccc21        42
4  O=C1/C(=C/c2cc(O)c(O)c(O)c2)Oc2cc(O)cc(O)c21        94
5  O=C1/C(=C/c2cc(O)c(O)c(O)c2)Cc2c(O)cccc21        78
6  O=C1/C(=C/c2ccc(O)c(O)c2)Cc2cc(O)cc(O)c21        65

# next compound below
Problem: I would be grateful if you could share the reported inhibition for O=C1/C(=C/c2ccc(O)cc2O)Oc2cc(O)cc(O)c21 .
Solution: 89
